Hey, just so you know, these numbers are from ChEMBL document CHEMBL1201862.

# Tested on: KM12
# Procedure text: NCI tumour cell line growth inhibition, 48 h
The source made the active and inactive calls. Rule as the data show it: active = GI50 up to about 1.1 µM and inactive = higher.
Classes used: t (active), f (inactive)

>>> cat("CN(C(=O)c1ccccc1)C1CCCC(=O)CC1 (stereo not given)")
"f"
>>> cat("COc1ccc(C(C)c2cc3c(cc2OC)OCO3)cc1 (stereo not given)")
"t"
>>> cat("CC(C)(CN1CCCCC1)C(/C=C/c1ccc(Cl)c(Cl)c1)=N\\NC(=O)N/N=C(/C=C/c1ccc(Cl)c(Cl)c1)C(C)(C)CN1CCCCC1")
"f"
>>> cat("O=C(COc1ccc(Cl)cc1)N1N=C(c2ccc([N+](=O)[O-])o2)CC1(O)c1ccccc1 (stereo not given)")
"f"
>>> cat("NCC(=O)NC(CO)C(=O)O (stereo not given)")
"f"

----------
# Test system: NCI-H460
# Procedure text: NCI tumour cell line growth inhibition, 48 h
Calls of active or inactive are those of the source. No stated cut-off is given here; in the data, active = GI50 up to about 1.1 µM and inactive = higher.
Classes used: active, inactive

>>> cat("Cc1cc2nc3c(C#N)c4c(c(Cl)n3c2cc1C)CCC4")
"inactive"
>>> cat("COc1ccc(C2CC(c3ccc4ccccc4c3O)=NN2)cc1OC (stereo unspecified)")
"inactive"
>>> cat("COc1ccc(C2(Cl)C(Cl)(C(F)(F)F)C2(Cl)C(F)(F)F)cc1 (stereo unspecified)")
"inactive"
>>> cat("Cc1cc(S(=O)(=O)Nc2nc(N)nc(N3CCOCC3)n2)c(SCC(=O)O)cc1Cl")
"inactive"
>>> cat("CC1(C)C[C@H]2C=C(C=O)[C@]34C[C@]3(C(=O)OC4O)[C@H]2C1 (stereo partly specified)")
"inactive"
>>> cat("CC(C)=CCCc1c(C)ccc2c1C(=O)C(=O)C(C(C)C)=C2")
"inactive"
>>> cat("O=C(/C=C/c1ccccc1O)c1cccnc1")
"inactive"
>>> cat("COc1ccccc1NC(=S)N/N=C/c1ccccn1")
"active"
>>> cat("Cl.O=C(O)c1cccnc1")
"inactive"
>>> cat("CCCCCCCc1cc(OC(=O)c2c(C)cc(OC)cc2O)cc(O)c1C(=O)O")
"inactive"
>>> cat("O=C(O)CCC1CCc2cccc(OCC(=O)O)c2C1=O (stereo unspecified)")
"inactive"

----------
Lab note: GI50 readings collected with HCT-15 for the following compounds.
Readout name: GI50

>>> meas_value("CC(C)(C)C1(O)Cc2ccccc2C(=O)O1 (stereo unspecified)")
"> 100 µM"
>>> meas_value("CC(=O)NC1(C)CCC(C(C)(C)NC(C)=O)CC1 (stereo unspecified)")
"> 100 µM"
>>> meas_value("O=C(CCC=C(S(=O)(=O)c1ccccc1)S(=O)(=O)c1ccccc1)c1ccccc1")
"5.98 µM"
>>> meas_value("COP(=O)(OC)/C(=C/c1c[nH]c2ccccc12)C(=O)O")
"> 100 µM"
>>> meas_value("CN(C)c1nc(N)nc(CS)n1")
"56.4 µM"
>>> meas_value("CC(C)(C)C#CI1OC(=O)c2ccccc21")
"3.38 µM"
>>> meas_value("CC(C)OP(=O)(OC(C)C)c1ccc2c(c1)OCCOCCOCCOCCO2")
"> 100 µM"
>>> meas_value("O=C(Cc1ccccc1)NN1C(=O)/C(=C\\c2ccc(O)cc2)S/C1=N\\c1ccccc1")
"> 100 µM"
>>> meas_value("CCN(CC)c1ccc(C2Nc3ccc4ccccc4c3C3=C2C(=O)CCC3)cc1 (stereo unspecified)")
"> 100 µM"
>>> meas_value("COc1cc(/C=C/c2ccc(C)cc2)cc(OC)c1OC")
"4.08 µM"
>>> meas_value("NC(Cc1nnn[nH]1)C(=O)O (stereo unspecified)")
"> 100 µM"
